system: SK-CO-1 cells; experiment: SK-CO-1 CTG proliferation assay (120 h) (CRC, G12V); format: cell-based; settings: Homo sapiens
ENDPOINT: pIC50
To interpret pIC50, take it as minus log10 of a concentration measured in moles per litre.

Req: State its pIC50: `C[C@H](Oc1nc(-c2noc3c2CCC[C@@]32CCCc3sc(N)c(C#N)c32)nc2c1CCCO[C@]21CCOC1)[C@@H]1CCCN1C`
Resp: 8.40

Req: Dear colleague, please send me the reported pIC50 for `C[C@H](Oc1nc(-c2onc3c2CCC[C@@]32CCCc3sc(N)c(C#N)c32)nc2c1n(C)c(=O)n2[C@@H]1CCCOC1)[C@@H]1CCCN1C` when you can.
Resp: 8.30

Req: Identify pIC50 associated with the compound `CO[C@H]1CCN(C)[C@@H]1[C@H](C)Oc1nc(-c2onc3c2CCC[C@@]32CCCc3sc(N)c(C#N)c32)nc2c1n(C)c(=O)n2[C@@H]1CCOC1`
Resp: 8.22

Req: Quickly give me recorded pIC50 for `CCn1c(=O)n([C@@H]2CCCOC2)c2nc(-c3onc4c3CCC[C@@]43CCCc4sc(N)c(C#N)c43)nc(OCC34CCCN3CCC4)c21`
Resp: 6.56

Req: Output measured pIC50 for this item: `C[C@H](Oc1nc(-c2noc3c2CCC[C@@]32CCCc3sc(N)c(C#N)c32)nc2c1CN(C1COC1)C[C@]21CCOC1)[C@@H]1CCCN1C`
Resp: 8.30

Req: For the compound `CO[C@@H]1C[C@@H]([C@H](C)Oc2nc(-c3onc4c3CCC[C@@]43CCCc4sc(N)c(C#N)c43)nc3c2n(C)c(=O)n3[C@@H]2CCOC2)N(C)C1` , give its measured pIC50 value.
Resp: 8.40
